# method.description: Conversion of Hipp-Arg by purified HCPB mutants, 30 minutes, HPLC (Example 17)
# Format: biochemical
# condition.label: enzyme 25 μg/ml; 0.5 mM substrate; 30 minutes at 37° C.
Below is a list of entries, each paired with its recorded Hipp-Arg (% conversion) value.
# number only, unit % dropped from output

molecule: [G251K, D253R]: HCPB mutant with G251K and D253R (protein, UniProt P15086 111-417, looked up, variant G251K D253R) Carboxypeptidase B: ATGHSYEKYNKWETIEAWTQQVATENPALISRSVIGTTFEGRAIYLLKVGKAGQNKPAIFMDCGFHAREWISPAFCQWFVREAVRTYGREIQVTELLDKLDFYVLPVLNIDGYIYTWTKSRFWRKTRSTHTGSSCIGTDPNRNFDAGWCEIGASRNPCDETYCGPAAESEKETKALADFIRNKLSSIKAYLTIHSYSQMMIYPYSYAYKLGENNAELNALAKATVKELASLHGTKYTYGPGATTIYPAAGKSRDWAYDQGIRYSFTFELRDTGRYGFLLPESQIRATCEETFLAIKYVASYVLEHLY
Hipp-Arg (% conversion), %: 0

Query molecule follows.
Complete the entry with Hipp-Arg (% conversion) for [G251T,D253K]: HCPB mutant with G251T and D253K, (His)6-c-myc tag (protein, UniProt P15086 111-417, looked up, variant G251T D253K, (His)6-c-myc tag) Carboxypeptidase B: ATGHSYEKYNKWETIEAWTQQVATENPALISRSVIGTTFEGRAIYLLKVGKAGQNKPAIFMDCGFHAREWISPAFCQWFVREAVRTYGREIQVTELLDKLDFYVLPVLNIDGYIYTWTKSRFWRKTRSTHTGSSCIGTDPNRNFDAGWCEIGASRNPCDETYCGPAAESEKETKALADFIRNKLSSIKAYLTIHSYSQMMIYPYSYAYKLGENNAELNALAKATVKELASLHGTKYTYGPGATTIYPAAGTSKDWAYDQGIRYSFTFELRDTGRYGFLLPESQIRATCEETFLAIKYVASYVLEHLY
5.2
